# test_target: CRF1 (Rattus norvegicus)
# Construct: Frozen rat frontal cortex was thawed rapidly in assay buffer; tissue Analytical Biological Services, Inc. (Wilmington, Del.); host or cells: rat frontal cortex
# Sequence (P35353 24-415): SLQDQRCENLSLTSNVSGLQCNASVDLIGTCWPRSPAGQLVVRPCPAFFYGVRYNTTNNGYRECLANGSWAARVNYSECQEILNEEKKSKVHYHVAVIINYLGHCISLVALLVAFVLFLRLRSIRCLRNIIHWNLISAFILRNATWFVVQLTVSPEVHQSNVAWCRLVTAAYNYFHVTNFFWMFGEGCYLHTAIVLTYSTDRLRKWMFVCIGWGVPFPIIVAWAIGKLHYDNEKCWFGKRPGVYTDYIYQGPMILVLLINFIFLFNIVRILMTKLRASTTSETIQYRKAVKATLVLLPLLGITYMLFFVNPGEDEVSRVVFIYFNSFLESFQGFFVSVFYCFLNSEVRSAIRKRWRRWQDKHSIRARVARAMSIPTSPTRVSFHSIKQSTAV
# assay_overview: CRF1 Binding Assay (125I-ovine-CRF displacement, rat frontal cortex homogenate)
# assay_conditions: 125I-o-CRF, numeric values
# Method: Frozen rat frontal cortex was thawed rapidly in assay buffer containing 50 mM Hepes (pH 7.0 at 23° C.), 10 mM MgCl2, 2 mM EGTA, 1 μg/ml aprotinin, 1 μg/ml leupeptin, 1 Mg/ml pepstatin A, 0.005% Triton X-100, 10 U/ml bacitracin and 0.1% ovalbumin and homogenized. […] Filters were then counted in a Wallac Wizard gamma counter. IC50 values were determined in a five point (five drug concentrations) or ten point (ten drug concentrations) competition assay using non-linear regression by Microsoft Excel-fit. […]
For each entry below, report its pIC50 value.
Answers are plain numbers, as −log10 of the molar value.

Previously resolved entries follow.
[[record]]
molecule = "Cc1cc(Nc2nc(Cl)cn([C@H](COC(=O)Nc3ccccc3)C3CC3)c2=O)c(C)nc1OC(F)F [Example 14]"
measured_attribute = "pIC50"
experimental_value = 9.13

[[record]]
molecule = "CCCCNC(=O)OC[C@H](C1CC1)n1cc(Cl)nc(Nc2cc(C)c(OC)nc2C)c1=O [Example 8]"
measured_attribute = "pIC50"
experimental_value = 8.32


Kindly consider the entry below.
Query: Query for CRF1 (Rattus norvegicus): what pIC50 does the record show for CCOc1nc(C)c(NC(=O)OC[C@H](C2CC2)n2cc(Cl)nc(Nc3cc(C)c(OC)nc3C)c2=O)cc1C [Example 11] ?
Response: 7.80

Attribution: patent US8436000B2
